All values here come from the Deep4Chem optical property database.

- ASSAY OVERVIEW: solvent given as SMILES
- EXPERIMENTAL SETUP: in CCOC(C)=O

COMPOUND: COC(=O)C(Cc1ccc2oc(-c3ccc(-n4c5ccccc5c5ccccc54)cc3)nc2c1)NC(=O)OC(C)(C)C (stereo unspecified)
READING UNIT: nm
emission maximum: 409
--
COMPOUND: COc1ccc(-c2ccc(-c3ccc(C#N)s3)s2)cc1
READING UNIT: nm
emission maximum: 461
--
COMPOUND: CCCCCCCCN1c2ccccc2Sc2cc(/C=C/c3ccc(N(c4ccc(/C=C/c5ccc6c(c5)Sc5ccccc5N6CCCCCCCC)cc4)c4ccc(/C=C/c5ccc(/C=C/c6ccc(N(c7ccc(/C=C/c8ccc9c(c8)Sc8ccccc8N9CCCCCCCC)cc7)c7ccc(/C=C/c8ccc9c(c8)Sc8ccccc8N9CCCCCCCC)cc7)cc6)c6nsnc56)cc4)cc3)ccc21
READING UNIT: nm
emission maximum: 644
--
COMPOUND: Cc1ccc(/C(C#N)=C/c2cc(/C=C(\C#N)c3ccc(C)cc3)c(-c3ccc(N(c4ccccc4)c4ccccc4)cc3)cc2-c2ccc(N(c3ccccc3)c3ccccc3)cc2)cc1
READING UNIT: nm
emission maximum: 533
--
COMPOUND: COC(=O)C[C@H](NC(=O)[C@H](Cc1c[nH]c2ccccc12)NC(=O)OC(C)(C)C)C(=O)OC
READING UNIT: nm
emission maximum: 327
--
COMPOUND: CCn1c2ccccc2c2cc(-c3cc(-c4ccc5c(c4)c4ccccc4n5CC)nc(N4CCCCC4)n3)ccc21
READING UNIT: nm
emission maximum: 409

----------
- ASSAY OVERVIEW: solvent given as SMILES
- EXPERIMENTAL SETUP: in Cc1ccccc1
Exam item: assign TRUE to entries whose emission maximum is below 600 nm and FALSE to entries at or above 600 nm. Note that a value of exactly 600 nm receives FALSE.

CHEMICAL STRUCTURE: CC(C)(C)c1ccc2c(c1)c1cc(C(C)(C)C)ccc1n2-c1ccc(C(=C(C#N)C#N)c2ccc(-n3c4ccc(C(C)(C)C)cc4c4cc(C(C)(C)C)ccc43)cc2)cc1
LABEL CLASS: TRUE

CHEMICAL STRUCTURE: Cc1ccc(/C(C#N)=C/c2cc(/C=C(\C#N)c3ccc(C)cc3)c(-c3ccc(N(c4ccccc4)c4ccccc4)cc3)cc2-c2ccc(N(c3ccccc3)c3ccccc3)cc2)cc1
LABEL CLASS: TRUE

CHEMICAL STRUCTURE: COc1ccc(C2=C(Br)C(c3ccccc3)=[N+]3C2=Nc2c(-c4ccc(OC)cc4)c(Br)c(-c4ccccc4)n2[B-]3(F)F)cc1
LABEL CLASS: FALSE

CHEMICAL STRUCTURE: CC(C)(C)c1ccc2c3c(c4ccc(C(C)(C)C)cc4c2c1)=[N+]1C(=C(c2ccccc2)c2c(Br)c4c5ccc(C(C)(C)C)cc5c5cc(C(C)(C)C)ccc5c4n2[B-]1(F)F)C=3Br
LABEL CLASS: FALSE

CHEMICAL STRUCTURE: CN(C)c1ccc2cc(C3=[O+][B-](F)(F)OC(c4ccccc4)=C3)ccc2c1
LABEL CLASS: TRUE

CHEMICAL STRUCTURE: CC(C)c1cccc(C(C)C)c1N1C(=O)c2cc(Cl)c3c4c(Cl)cc5c6c(cc(Cl)c(c7c(Cl)cc(c2c37)C1=O)c64)C(=O)N(c1c(C(C)C)cccc1C(C)C)C5=O
LABEL CLASS: TRUE

----------
Quick reference: emission maximum of the listed items.
- ASSAY OVERVIEW: solvent given as SMILES
- EXPERIMENTAL SETUP: in C1CCOC1

MOLECULE: O=C(c1ccc(C(=C(c2ccccc2)c2ccccc2)c2ccccc2)cc1)c1ccc(-n2c3ccccc3c3ccccc32)cc1
emission maximum: 496 nm

MOLECULE: N#Cc1cc2ccccc2oc1=O
emission maximum: 409 nm

MOLECULE: F[B-]1(F)OC(c2ccccc2)=C(c2ccccc2)c2sc3ccccc3[n+]21
emission maximum: 446 nm

MOLECULE: COc1ccc(N(c2ccc(OC)cc2)c2ccc3ccc4c(B(c5c(C)cc(C)cc5C)c5c(C)cc(C)cc5C)ccc5ccc2c3c54)cc1
emission maximum: 626 nm

MOLECULE: O=C1C(=c2c(=O)c3c4ccccc4cc4cc5ccccc5c2c43)C(=O)c2ccccc21
emission maximum: 583 nm

MOLECULE: CC1CC=C(c2ccc(-c3cccs3)s2)CC1 (stereo not drawn)
emission maximum: 412 nm

MOLECULE: Cc1ccc(C2=C3C=CC(/C=C/c4ccccc4)=[N+]3[B-](F)(F)n3c(/C=C/c4ccccc4)ccc32)cc1
emission maximum: 645 nm

MOLECULE: CCCCn1c2ccc(-c3cccs3)cc2c2c1c1c3ccc(-c4cccs4)cc3n(CCCC)c1c1c3ccc(-c4cccs4)cc3n(CCCC)c21
emission maximum: 424 nm

MOLECULE: CC(=O)c1c2c(cc3c(N(C)C)cccc13)CCC2
emission maximum: 543 nm

MOLECULE: COc1ccc(-c2nc(-c3ccccc3O)c(-c3ccccc3O)n2-c2ccc(C)cc2)cc1
emission maximum: 357 nm

MOLECULE: CC(C)(C)c1ccc(-c2nc3c4ccc(-c5ccc6ccc7cccc8ccc5c6c78)cc4c4cc(-c5ccc6ccc7cccc8ccc5c6c78)ccc4c3n2-c2ccc(C(C)(C)C)cc2)cc1
emission maximum: 442 nm

MOLECULE: CN(C)c1ccc(C2=C(c3ccccc3)c3oc4ccccc4[n+]3[B-](F)(F)O2)cc1
emission maximum: 476 nm

MOLECULE: COc1ccc(/C=C/c2cc(/C=C/c3ccc(OC)cc3)nc(/C=C/c3ccc(C(F)(F)F)cc3)n2)cc1
emission maximum: 436 nm

MOLECULE: C1=C(c2ccc(-c3cccs3)s2)CCCC1
emission maximum: 423 nm

MOLECULE: CC1(C)CC(=O)C2=C(C1)Oc1ccc3cc(O)ccc3c1C2c1ccccn1 (stereo not drawn)
emission maximum: 374 nm

MOLECULE: COc1ccc(-n2c(-c3ccc(-c4cncc5ccccc45)cc3)nc3c4ccccc4c4ccccc4c32)cc1
emission maximum: 429 nm

MOLECULE: c1ccc2c(c1)c1ccccc1n2-c1ccc2c(c1)c1ccccc1n2-c1cc2c3ccccc3n3c4ccccc4c(c1)c23
emission maximum: 402.09 nm

MOLECULE: CC1(C)c2ccccc2N(c2ccc3c(c2)C(C)(C)c2cc(N4c5ccccc5C(C)(C)c5ccccc54)ccc2S3(=O)=O)c2ccccc21
emission maximum: 473.1 nm

----------
Quick reference: emission maximum of the listed items.
- ASSAY OVERVIEW: solvent given as SMILES
- EXPERIMENTAL SETUP: in CO
ASSAY READOUT: emission maximum

COMPOUND: COc1ccc(N2C(=O)c3ccccc3NC2C(C)(C)C)cc1 (stereo not given)
ASSAY RESULT: 444 nm
--
COMPOUND: CCOC(=O)CCCCCn1c2ccc(C)cc2c(=O)c2cc3c(cc21)c(=O)c1cc(C)ccc1n3CCCCCC(=O)OCC
ASSAY RESULT: 565 nm
--
COMPOUND: CCOC(=O)C1=C(C)NC2=C(C(=O)c3ccccc32)C1c1ccc(N(C)C)cc1 (stereo not given)
ASSAY RESULT: 561 nm
--
COMPOUND: Cn1c(=O)c(/N=N/c2cc(S(=O)(=O)O)ccc2S(=O)(=O)O)c(O)c2ccccc21
ASSAY RESULT: 483 nm
--
COMPOUND: COC(=O)C(Cc1ccc2oc(-c3ccc(N(c4ccccc4)c4ccccc4)cc3)nc2c1)NC(=O)OC(C)(C)C (stereo not given)
ASSAY RESULT: 486 nm
--
COMPOUND: CCN(CC)c1ccc2cc(-c3ccc(S(C)(=O)=O)cc3)oc(=O)c2c1
ASSAY RESULT: 489 nm
--
COMPOUND: C(=C\c1cc[n+]2ccc(/C=C/c3cc[nH]c3)cc2c1)/c1cc[nH]c1
ASSAY RESULT: 542 nm
--
COMPOUND: CCOC(=O)CCOc1ccc(C(c2c(C)[nH]c3ccccc23)c2c(C)[nH]c3ccccc23)cc1
ASSAY RESULT: 349 nm
--
COMPOUND: CCc1c(C)c2n(c1C)[B-](F)(F)[N+]1=C(c3ccc[nH]3)c3ccccc3C1=C2C
ASSAY RESULT: 622 nm
--
COMPOUND: CCN(CC)c1ccc(OC)c(C=O)c1
ASSAY RESULT: 645 nm
--
COMPOUND: CCC1=C(C)C(=O)n2c1cc1c(c(C)c(C(=O)OCC(C)C)n1CC(C)C)c2=O
ASSAY RESULT: 498 nm
--
COMPOUND: CC1=CC(Br)=CN2C[n+]3cc(Br)cc(C)c3N=C12
ASSAY RESULT: 502 nm
--
COMPOUND: F[B-]1(F)n2c(nc(Br)c2Br)-c2cccc[n+]21
ASSAY RESULT: 487 nm
--
COMPOUND: COc1ccc(-c2cc3ccc4cc(-c5ccc(OC)cc5)cc5ccc(c2)c3c45)cc1
ASSAY RESULT: 418.06 nm
--
COMPOUND: CC1=NN(c2ccccc2)C(=O)/C1=C/c1cn(-c2ccccc2)nc1-c1ccccc1
ASSAY RESULT: 430 nm
--
COMPOUND: Cc1ccc(-c2nc(-c3ccccc3O)[nH]c2-c2ccc(C)cc2)cc1
ASSAY RESULT: 430 nm
--
COMPOUND: CCN(CC)c1ccc2c(C#N)c(/C=C(\C#N)c3nc4ccccc4s3)c(=O)oc2c1
ASSAY RESULT: 701 nm
--
COMPOUND: COC(=O)C(NC(=O)OC(C)(C)C)c1ccc2oc(-c3ccc(C#N)cc3)nc2c1 (stereo not given)
ASSAY RESULT: 385 nm
--
COMPOUND: CC(C)(C)NC1=C2C=CC=[N+]2[B-](F)(F)n2cccc21
ASSAY RESULT: 491 nm
--
COMPOUND: CCCCCCCC1=C(C)C(=O)n2c1cc1[nH]c(C(=O)OC)c(C)c1c2=O
ASSAY RESULT: 500 nm
